Recorded values, source patent US20200261421A1.

Observed IC50 values for wild-type HIV-1 protease (Human immunodeficiency virus type 1 group M subtype B) are listed in what follows.
Express the result in µM but write the number alone.

Observe how each entry below is paired with its result.
compound | endpointUnit | quantitativeResult
CN(Cc1ccccc1C(F)(F)F)C(=O)c1cccc(CN2C(=N)NC(c3ccc(F)cc3)(c3ccc(F)cc3)C2=O)c1 [Example 46] | µM | 0.0311
C[C@H](c1ccc(Cl)cc1)N(C)C(=O)c1cccc(CN2C(=N)NC(c3ccc(F)cc3)(c3ccc(F)cc3)C2=O)c1 [Example 41] | µM | 0.0265
CN(Cc1ccccc1S(C)(=O)=O)C(=O)c1cccc(CN2C(=N)NC(c3ccccc3)(c3ccccc3)C2=O)c1 [Example 23] | µM | 0.0129

Q) Given the entry CN(Cc1ccccc1Cl)C(=O)c1cccc(CN2C(=N)NC(c3ccc(F)cc3)(c3ccc(F)cc3)C2=O)c1 [Example 66] , report its measured IC50.
A) 0.0905

Q) Now give it for CC(C)CCC1(c2ccccc2)NC(=N)N(Cc2ccc(C(F)(F)F)c(C(=O)NCC(F)F)c2)C1=O (stereo not shown) [Example 10] too.
A) 0.0912

Q) Now give it for CN(C)C(=O)c1cccc(CN2C(=N)NC(c3ccccc3)(c3cccc(-c4ccccc4)c3)C2=O)c1 (stereo not shown) [Example 63] too.
A) 0.0834

Q) Now give it for Cc1cc(CN2C(=N)NC(c3ccc(F)cc3)(c3ccc(F)cc3)C2=O)cc(C(=O)N(C)Cc2ccc(F)cc2)n1 [Example 93] too.
A) 0.0326

Q) Now give it for CN(Cc1ccc(F)cc1)C(=O)c1csc(CN2C(=N)NC(c3ccccc3)(c3ccccc3)C2=O)n1 [Example 95] too.
A) 0.03

Q) Now give it for CC(C)CCC1(c2ccc(F)cc2)NC(=N)N(Cc2cccc(C(=O)N(C)Cc3ccc(C#N)cc3)c2)C1=O (stereo not shown) [Example 35] too.
A) 0.0205

Q) Now give it for CN(C)C(=O)c1cccc(CN2C(=N)NC(c3ccccc3)(c3cccc(-c4cccc(C#N)c4)c3)C2=O)c1 (stereo not shown) [Example 51] too.
A) 0.0455

Q) Now give it for CC(C)CCC1(c2ccccc2)NC(=N)N(Cc2cccc(C(=O)N(C)Cc3ccc(F)cc3)c2)C1=O (stereo not shown) [Example 17] too.
A) 0.0103

Q) Now give it for C[C@H](c1ccc(F)cc1)N(C)C(=O)c1cncc(CN2C(=N)NC(c3ccc(F)cc3)(c3ccc(F)cc3)C2=O)c1 [Example 79] too.
A) 0.0137

Q) Now give it for CN(C)C(=O)c1cccc(CN2C(=N)NC(c3ccc(F)cc3)(c3cccc(Br)c3)C2=O)c1 (stereo not shown) [Example 53] too.
A) 0.0486

###

tgt: wild-type HIV-1 protease (Human immunodeficiency virus type 1 group M subtype B, UniProt P04585)
measure: pIC50
# pIC50 is unitless: minus log10 of the molar concentration; print number only

compound | pIC50
CC(C)CCC1(c2ccccc2)NC(=N)N(Cc2cccc(C(=O)N(C)Cc3ccccc3S(C)(=O)=O)c2)C1=O (stereo not drawn) | 7.75
CC(C)CCC1(c2ccccc2)NC(=N)N(Cc2cccc(C(=O)N(C)Cc3ccc(C#N)cc3)c2)C1=O (stereo not drawn) | 8.13

As a next step, examine the compound that follows.
Q) Given the entry `N=C1NC(c2ccccc2)(c2ccccc2)C(=O)N1Cc1ccc(C(F)(F)F)c(C(=O)NCc2ccccc2OC(F)F)c1` , report its measured pIC50.
A) 7.28
